system: Escherichia coli TOP10; assay: shrunken log2 fold change of peptide-encoding DNA abundance (4.5 h post-induction vs induction); higher = less antimicrobial activity (less host growth inhibition); conditions: time post-induction: 4.5 h; library: site-saturation at positions 5, 18, 19, 20;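 further: peptides expressed intracellularly from a pBAD plasmid library in pooled LB shake-flask culture, induced with 0.3% L-arabinose, DNA abundance read by NGS, three biological replicates, DESeq2 with apeglm shrinkage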
Assign shrunken log2 fold change to each entry below.
Answers are plain numbers.

Example entries begin here.
[[record]]
input_sequence = "RRIRNRPPRLPRPRPRPTEYPRP"
study_system = "Escherichia coli TOP10"
measured_number = -0.203

[[record]]
input_sequence = "RRIRMRPPRLPRPRPRPSRTPRP"
study_system = "Escherichia coli TOP10"
measured_number = 0.715

[[record]]
input_sequence = "RRIRCRPPRLPRPRPRPNQAPRP"
study_system = "Escherichia coli TOP10"
measured_number = -0.146

[[record]]
input_sequence = "RRIRLRPPRLPRPRPRPFLAPRP"
study_system = "Escherichia coli TOP10"
measured_number = -0.141

[[record]]
input_sequence = "RRIRARPPRLPRPRPRPFDSPRP"
study_system = "Escherichia coli TOP10"
measured_number = -0.0745

[[record]]
input_sequence = "RRIRDRPPRLPRPRPRPRREPRP"
study_system = "Escherichia coli TOP10"
measured_number = 0.281


Field: shrunken log2 fold change. Fill in for each record below.
1. RRIRSRPPRLPRPRPRPMKVPRP
2. RRIRGRPPRLPRPRPRPPGEPRP
3. RRIRQRPPRLPRPRPRPILCPRP
4. RRIRCRPPRLPRPRPRPRIAPRP
5. RRIRARPPRLPRPRPRPDYMPRP

-0.0404
1.14
-0.0627
0.0204
-0.0383

Dear reader, for each entry below, please note its shrunken log2 fold change.
1. RRIRNRPPRLPRPRPRPASHPRP
2. RRIRNRPPRLPRPRPRPCFLPRP
3. RRIRLRPPRLPRPRPRPANKPRP
4. RRIRTRPPRLPRPRPRPREVPRP
5. RRIRARPPRLPRPRPRPDARPRP
6. RRIRHRPPRLPRPRPRPAWKPRP
7. RRIRIRPPRLPRPRPRPHMWPRP
8. RRIRNRPPRLPRPRPRPYNLPRP

1: 0.0783; 2: -0.389; 3: -0.0711; 4: 0.442; 5: 0.355; 6: -0.0109; 7: -0.321; 8: 0.00765

Hi! Can you tell me shrunken log2 fold change for each of these sequences?
1. RRIRHRPPRLPRPRPRPREVPRP
2. RRIRNRPPRLPRPRPRPRARPRP
3. RRIRIRPPRLPRPRPRPVVSPRP

1: 0.151; 2: 0.856; 3: -0.503

For each of the sequences below, note its shrunken log2 fold change.
1. RRIRARPPRLPRPRPRPYSTPRP
2. RRIRHRPPRLPRPRPRPDLHPRP
3. RRIRKRPPRLPRPRPRPLFLPRP
4. RRIRRRPPRLPRPRPRPFMSPRP

-0.563
-0.0566
0.115
-0.327
